From: patent US20140302063A1

molecular target: A/California/7/2009 (H1N1) inactivated viral preparation (Influenza A virus A/California/7/2009 (H1N1)); assay: ELISA, inactivated virus
assay.metric: log10 EC50 (log10 of the value in µg/mL)
Record value = log10 of EC50 given in µg/mL.

Example binders with recorded log10 EC50:
{"binder": "R1a-E6 (VHH) VHH: QVQLVESGGGLVQPGGSLRLSCAASGFTLGAYAIAWFRQAPGKEREGVSCISPSDSFTEYGDSVKGRFTVSRDNAKNTVYLQMNSLQPEDTAVYYCAADPVCTAGWYRPSRFDLWGQGTQVTVSS", "log10 EC50": 0.39}
{"binder": "R1a-F5 (VHH) VHH: QLQLVESGGGLVQVGGSLRLSCAASGFPFDGYAIAWFRQAPGKEREGVSCRASDGNTYYAESLKGRLTMSTDNAKNTVYLQMNSLKPEDTAVYYCAAASWVASLWSPSEYDYWGQGTQVTVSS", "log10 EC50": -0.26}
{"binder": "R2b-D9 (VHH) VHH: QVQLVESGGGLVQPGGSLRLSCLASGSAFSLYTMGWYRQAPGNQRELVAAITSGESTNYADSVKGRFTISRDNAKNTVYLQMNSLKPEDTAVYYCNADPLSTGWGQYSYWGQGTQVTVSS", "log10 EC50": -0.05}
{"binder": "R2a-G9 (VHH) VHH: QVQLVESGGGLVQPGGSLRLSCAASDNIFSFYTMGWYRQSPGKERELVAVIGNGGNTNYADSVKGRFTISRDNGKNKAHLQMNSLKPEDTAVYYCKASGPGGVEVWGQGTQVTVSS", "log10 EC50": -0.52}
{"binder": "R2b-E8 (VHH) VHH: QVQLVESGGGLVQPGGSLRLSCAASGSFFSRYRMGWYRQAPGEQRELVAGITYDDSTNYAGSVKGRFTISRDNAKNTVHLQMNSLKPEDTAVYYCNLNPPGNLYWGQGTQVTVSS", "log10 EC50": 0.56}

// each listed binder needs a value for log10 EC50
1. R2a-B9 (VHH) VHH: QVQLVESGGGLVQPGGSLRLSCAASGSAFSINAMGWYRQAPGEEREFVAAITAGGNTYYADSAKARFTISRDNAKNMLYLQMNSLKPEDTAMYYCAATKAFGIATITADYELWGQGTQVTVSS
2. R1a-G5 (VHH) VHH: QLQLVESGGGLVQPGGSLRLSCAASGSISRIVTMGWYRQASGKERELVAVIGNYGNTNYADSVKGRFTVSRDNAKDTAYLQMNGLNVEDTAIYYCKTSTTTPPYEYWGQGTQVTVSS
3. R1a-B6 (VHH) VHH: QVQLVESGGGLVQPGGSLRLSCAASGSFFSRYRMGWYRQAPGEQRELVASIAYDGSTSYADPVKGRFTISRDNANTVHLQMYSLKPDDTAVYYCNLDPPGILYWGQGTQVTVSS

A)
1. 0.00
2. 0.24
3. -0.41
